Molecular target: Thymidylate synthase (Mus musculus)
Assay: Inhibition of thymidylate synthetase in mouse L1210S cells
Type: cell-based
Could you mark each record True if its log(1/I50) falls strictly under 5, and False if it equals or exceeds it?

>>> df
                                   molecule                               target  assigned_category
0  Cc1c(CNc2ccc(C(=O)NC(CC(=O)O)C(=O)O)cc2)ccc2nc(N)nc(N)c12 (stereo not given)  Thymidylate synthase (Mus musculus)              False

Q: Could you please tell me whether log(1/I50) recorded for Nc1nc(S)c2cc(CNc3ccc(C(=O)O)cc3)ccc2n1 is less than 5?
A: True

Q: Lab note: log(1/I50) threshold 5. Does this molecule come in strictly under it? Cc1c(NCc2ccc(C(=O)NC(CCC(=O)O)C(=O)O)cc2)ccc2nc(N)nc(N)c12 (stereo not given)
A: False

Q: Strictly below 5: is that where log(1/I50) of Nc1nc(N)c2cc(CN(C=O)c3ccc(C(=O)O)cc3)ccc2n1 sits?
A: True

Q: Regarding CCOC(=O)c1ccc(CNc2ccc3nc(N)nc(N)c3c2C)cc1 , kindly confirm whether its log(1/I50) is beneath 5.
A: True

Q: Identify whether the molecule Nc1nc(=O)c2cc(CSc3ccc(C(=O)NC(CCC(=O)O)C(=O)O)cc3)ccc2[nH]1 (stereo not given) records log(1/I50) below 5.
A: False

Q: Strictly below 5 in log(1/I50)? CCOC(=O)c1ccc(NCc2ccc3nc(N)nc(O)c3c2)cc1
A: True

Q: Please state whether log(1/I50) is below 5 for CCOC(=O)c1ccc(NCc2ccc3nc(N)nc(N)c3c2)cc1
A: True

Q: Lab note: log(1/I50) threshold 5. Does this molecule come in strictly under it? Nc1nc(=O)c2cc(NCc3ccc(C(=O)NC(CCC(=O)O)C(=O)O)cc3)ccc2[nH]1 (stereo not given)
A: False

Q: Threshold test, log(1/I50) < 5: Nc1nc(O)c2cc(CCc3ccc(C(=O)NC(CCC(=O)O)C(=O)O)cc3)ccc2n1 (stereo not given)
A: False

Q: Determine if CCOC(=O)CCC(NC(=O)c1ccc(SCc2ccc3nc(N)nc(O)c3c2)cc1)C(=O)OCC (stereo not given) shows log(1/I50) strictly lower than 5.
A: False

Q: Bench note: check whether CN(Cc1ccc2nc(N)nc(O)c2c1)c1ccc(C(=O)O)cc1 shows log(1/I50) below 5
A: True

====

# log(1/I50) per entry
Molecular target: Thymidylate synthase (Mus musculus) (UniProt P07607)
Sequence (P07607 whole entry, looked up): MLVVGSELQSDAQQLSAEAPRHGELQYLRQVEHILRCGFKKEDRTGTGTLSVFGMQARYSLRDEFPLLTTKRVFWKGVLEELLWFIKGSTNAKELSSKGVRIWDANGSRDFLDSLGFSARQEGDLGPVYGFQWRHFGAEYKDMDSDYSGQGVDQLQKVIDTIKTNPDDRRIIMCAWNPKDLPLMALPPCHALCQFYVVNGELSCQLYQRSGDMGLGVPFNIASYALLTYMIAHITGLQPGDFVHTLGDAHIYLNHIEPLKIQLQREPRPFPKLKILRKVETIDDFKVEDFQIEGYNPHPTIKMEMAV
Test: Inhibition of thymidylate synthetase in mouse L1210S cells
Assay type: cell-based
# answer = number (no unit)

Completed entries (count: 2):
>>> df
                                   compound  test_value
0  Nc1nc(O)c2cc(CN(C=O)c3ccc(C(=O)NC(CCC(=O)O)C(=O)O)cc3)ccc2n1 (stereo not drawn)           7
1    Nc1nc(O)c2cc(NCc3ccc(C(=O)O)cc3)ccc2n1           4

With those in mind, consider the next compound.
Q: Answer with log(1/I50) of CCOC(=O)CCC(NC(=O)c1ccc(CNc2ccc3nc(N)nc(O)c3c2)cc1)C(=O)OCC (stereo not drawn) measured for Thymidylate synthase (Mus musculus) (UniProt P07607).
A: 6

====

Target: Dihydrofolate reductase (Mus musculus) (UniProt P00375)
Sequence (P00375 whole entry): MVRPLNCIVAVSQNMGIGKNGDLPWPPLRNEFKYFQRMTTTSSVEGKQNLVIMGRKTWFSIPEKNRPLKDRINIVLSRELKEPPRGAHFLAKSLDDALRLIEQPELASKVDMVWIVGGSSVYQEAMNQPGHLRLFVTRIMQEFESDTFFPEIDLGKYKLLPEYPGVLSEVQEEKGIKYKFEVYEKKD
Assay: Inhibition of dihydrofolate reductase in mouse L1210R cells
Assay type: cell-based
Measured Parameter: log(1/I50)
Please reply with the number alone, leaving off any unit.

In [3]: df
Out[3]:
                                   compound  test_value
0  Nc1nc(N)c2cc(CN(N=O)c3ccc(Cl)c(Cl)c3)ccc2n1           8
1  Cc1c(CNc2ccc(C(=O)NC(CC(=O)O)CC(=O)O)cc2)ccc2nc(N)nc(N)c12        9.15

Q: Check Dihydrofolate reductase (Mus musculus) (UniProt P00375) data and give log(1/I50) for Cc1c(CNc2ccc(C(=O)NC(CC(=O)O)C(=O)O)cc2)ccc2nc(N)nc(N)c12 (stereo unspecified) .
A: 8.87

Q: # return log(1/I50) for Nc1nc(N)c2c(Cl)c(CNc3ccc(C(=O)NC(CC(=O)O)C(=O)O)cc3)ccc2n1 (stereo unspecified) , test system: Dihydrofolate reductase (Mus musculus) (UniProt P00375)
A: 9.21

====

Form field: log(1/I50) (one value per entry).
Target: Thymidylate synthase (Lactobacillus casei)
Assay: Inhibition of thymidylate synthetase in Lactobacillus casei
Conditions: Lacticaseibacillus casei
The reply should be a number, written without any unit.

In [3]: df
Out[3]:
                                   compound  test_value
0  CCOC(=O)c1ccc(CNc2ccc3nc(N)nc(N)c3c2C)cc1           5
1  Nc1nc(N)c2cc(CN(C=O)c3ccc(C(=O)O)cc3)ccc2n1        4.12
2  CCOC(=O)CCC(NC(=O)c1ccc(SCc2ccc3nc(N)nc(O)c3c2)cc1)C(=O)OCC (configuration not stated)         5.1
3  Nc1nc(O)c2cc(CCc3ccc(C(=O)NC(CCC(=O)O)C(=O)O)cc3)ccc2n1 (configuration not stated)        5.12
4  CCOC(=O)c1ccc(NCc2ccc3nc(N)nc(N)c3c2)cc1           4

Q: Write log(1/I50) of Nc1nc(O)c2cc(CNc3ccc(C(=O)O)cc3)ccc2n1 ; system used: Thymidylate synthase (Lactobacillus casei)
A: 4

====

Each entry below carries its measured log(1/I50), system: UniProt P00374.
Sequence (P00374 whole entry): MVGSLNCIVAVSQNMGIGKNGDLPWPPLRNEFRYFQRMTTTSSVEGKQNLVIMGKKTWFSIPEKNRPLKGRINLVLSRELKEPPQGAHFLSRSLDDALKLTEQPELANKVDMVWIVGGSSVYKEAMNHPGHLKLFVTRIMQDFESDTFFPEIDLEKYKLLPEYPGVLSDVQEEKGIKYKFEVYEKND
Please respond with just the number, no unit label.

Below, 3 molecules whose answers are already recorded.
                                   molecule          target  test_value
0  Nc1nc(N)c2cc(CN(N=O)c3ccc(Cl)c(Cl)c3)ccc2n1  UniProt P00374           8
1  Cc1c(CN(N=O)c2ccc(Cl)c(Cl)c2)ccc2nc(N)nc(N)c12  UniProt P00374           8
2        Nc1nc(N)c2cc(CNc3ccc(Cl)cc3)ccc2n1  UniProt P00374        8.22

From here, focus on the item given below.
Q: Given Nc1nc(N)c2cc(Oc3ccc(CNc4ccc(C(=O)NC(CCC(=O)O)C(=O)O)cc4)cc3)ccc2n1 (centres undefined) , respond with its log(1/I50).
A: 7.8

====

Biological target: Thymidylate synthase (Mus musculus)
Assay: Inhibition of thymidylate synthetase in mouse L1210S cells
Assay type: cell-based
log(1/I50) under 5 gets rule met, anything at or over 5 gets rule not met.

Answered cases to consult:
>>> df
                                   molecule  assigned_category
0  CCOC(=O)CCC(NC(=O)c1ccc(NCc2ccc3nc(N)nc(N)c3c2)cc1)C(=O)OCC (stereo not drawn)           rule met
1  CN(Cc1ccc2nc(N)nc(O)c2c1)c1ccc(C(=O)NC(CCC(=O)O)C(=O)O)cc1 (stereo not drawn)       rule not met
2  Nc1nc(N)c2cc(NCc3ccc(C(=O)NC(CCC(=O)O)C(=O)O)cc3)ccc2n1 (stereo not drawn)       rule not met

In the following, a different molecule is considered.
Q: # strict comparison: is reported log(1/I50) < 5? input = Nc1nc(O)c2cc(CNc3ccc(C(=O)O)cc3)ccc2n1
A: rule met

====

Molecular target: Dihydrofolate reductase (Mus musculus) (UniProt P00375)
Test: Inhibition of dihydrofolate reductase in mouse L1210R cells
Type: cell-based
Item-by-item account of log(1/I50)
// response body must contain only the number

# count of solved cases: 8
>>> df
                                   molecule                                    target  test_value
0  Nc1nc(N)c2cc(Oc3ccc(CNc4ccc(C(=O)NC(CCC(=O)O)C(=O)O)cc4)cc3)ccc2n1 (configuration not stated)  Dihydrofolate reductase (Mus musculus) (UniProt P00375)        7.71
1  Nc1nc(N)c2cc(CNc3ccc(C(=O)NC(CC(=O)O)CC(=O)O)cc3)ccc2n1  Dihydrofolate reductase (Mus musculus) (UniProt P00375)        8.14
2  Nc1nc(N)c2cc(Oc3ccc(CNc4ccc(C(=O)NC(CC(=O)O)C(=O)O)cc4)cc3)ccc2n1 (configuration not stated)  Dihydrofolate reductase (Mus musculus) (UniProt P00375)        7.67
3     Cc1c(CNc2cccc(Br)c2)ccc2nc(N)nc(N)c12  Dihydrofolate reductase (Mus musculus) (UniProt P00375)        8.82
4    Nc1nc(N)c2cc(CNc3ccc(Cl)c(Cl)c3)ccc2n1  Dihydrofolate reductase (Mus musculus) (UniProt P00375)        8.05
5  Nc1nc(N)c2c(Cl)c(CNc3ccc(C(=O)NC(CCC(=O)O)C(=O)O)cc3)ccc2n1 (configuration not stated)  Dihydrofolate reductase (Mus musculus) (UniProt P00375)        9.05
6        Nc1nc(N)c2cc(CNc3cccc(Br)c3)ccc2n1  Dihydrofolate reductase (Mus musculus) (UniProt P00375)        8.64
7  Cc1c(CNc2ccc(Cl)c(C(=O)NC(CCC(=O)O)C(=O)O)c2)ccc2nc(N)nc(N)c12 (configuration not stated)  Dihydrofolate reductase (Mus musculus) (UniProt P00375)        8.68

Q: State log(1/I50) on Dihydrofolate reductase (Mus musculus) (UniProt P00375). Entry: CCOC(=O)c1ccc(CNc2ccc3nc(N)nc(N)c3c2C)cc1
A: 8

Q: Identify measured log(1/I50) obtained with Dihydrofolate reductase (Mus musculus) (UniProt P00375) for Nc1nc(N)c2cc(CNc3cccc(Cl)c3)ccc2n1 .
A: 8

Q: Provide measured log(1/I50) on Dihydrofolate reductase (Mus musculus) (UniProt P00375) for CN(Cc1ccc2nc(N)nc(N)c2c1)c1ccc(C(=O)NC(CC(=O)O)C(=O)O)cc1 (configuration not stated) please.
A: 8.66

Q: GET log(1/I50) | system: Dihydrofolate reductase (Mus musculus) (UniProt P00375) | item: Nc1nc(N)c2cc(CNc3ccc(Cl)cc3)ccc2n1
A: 8.3

Q: Enter recorded log(1/I50) with Dihydrofolate reductase (Mus musculus) (UniProt P00375) for Nc1nc(N)c2cc(CNc3cc(C(=O)NC(CC(=O)O)C(=O)O)ccc3Cl)ccc2n1 (configuration not stated) here.
A: 8.54

Q: Give log(1/I50); test system Dihydrofolate reductase (Mus musculus) (UniProt P00375); molecule Nc1nc(N)c2cc(CNc3ccc(C(=O)NC(C(=O)O)C(=O)O)cc3)ccc2n1
A: 8.81

Q: Print Dihydrofolate reductase (Mus musculus) (UniProt P00375) log(1/I50) for Nc1nc(N)c2cc(CNc3ccc(C(=O)NC(CC(=O)O)C(=O)O)cc3)ccc2n1 (configuration not stated) .
A: 8.76

Q: Specify log(1/I50) for Nc1nc(N)c2cc(CNc3ccc(C(=O)NC(CC(=O)O)C(=O)O)cc3Cl)ccc2n1 (configuration not stated) , system Dihydrofolate reductase (Mus musculus) (UniProt P00375).
A: 9.13

These measurements were taken from ChEMBL document CHEMBL3227974.
